tested-target: HLA-B*44:03
protocol-summary: IEDB peptide-MHC binding, purified MHC/competitive/fluorescence; bounds were set here for any values at or beyond the usual limits of such assays
assay-setup: source organism: Homo sapiens
assay-readout: IC50

Form: item LPSCPTNFCIF ; test system HLA-B*44:03; IC50: ≥ 20 µM

----------
tested-target: HLA-A*03:01
protocol-summary: IEDB peptide-MHC binding, purified MHC/direct/fluorescence; filed as Kd, often an IC50 or EC50 that approximates it; bounds were set here for any values at or beyond the usual limits of such assays
assay-setup: source organism: Amur virus
pKd: −log10 of the molar value.
assay-readout: pKd

Lab note: DVNGIRKPK gave pKd of ≤ 4.70

----------
tested-target: HLA-A*30:02
protocol-summary: IEDB peptide-MHC binding, purified MHC/competitive/radioactivity; filed as Kd, often an IC50 or EC50 that approximates it; bounds were set here for any values at or beyond the usual limits of such assays
assay-setup: source organism: Dengue virus 2 Jamaica/1409/1983
assay-readout: pKd
The value called pKd is obtained by taking minus log10 of the concentration in mol/L.

Form: item ITEAELTGY ; test system HLA-A*30:02; pKd: 8.02

----------
Some sequences, each annotated with its measured Kd.
tested-target: HLA-A*30:02
protocol-summary: IEDB peptide-MHC binding, purified MHC/competitive/radioactivity; filed as Kd, often an IC50 or EC50 that approximates it; bounds were set here for any values at or beyond the usual limits of such assays
assay-setup: source organism: Lymphocytic choriomeningitis virus (strain Armstrong)
Please give a number only; it is taken to be in nM.

Form: item STAPSSPPPY ; test system HLA-A*30:02; Kd: 1520

Form: item SLSLISHVV ; test system HLA-A*30:02; Kd: 1440

Next:
Form: item CSANNSHHY ; test system HLA-A*30:02; Kd: 10.6

----------
tested-target: HLA-B*08:01
protocol-summary: IEDB peptide-MHC binding, purified MHC/competitive/fluorescence; bounds were set here for any values at or beyond the usual limits of such assays
assay-setup: source organism: Vaccinia virus
assay-readout: IC50

Lab note: YSKDSRNKL gave IC50 of ≥ 77.1 µM

----------
tested-target: HLA-A*30:02
protocol-summary: IEDB peptide-MHC binding, purified MHC/competitive/radioactivity; filed as Kd, often an IC50 or EC50 that approximates it; bounds were set here for any values at or beyond the usual limits of such assays
assay-setup: source organism: Mammarenavirus choriomeningitidis
assay-readout: Kd (nM)
Please give a number only; it is taken to be in nM.

Lab note: WCSQTNYQY gave Kd of 734

----------
tested-target: HLA-A*30:01
protocol-summary: IEDB peptide-MHC binding, purified MHC/competitive/radioactivity; filed as Kd, often an IC50 or EC50 that approximates it; bounds were set here for any values at or beyond the usual limits of such assays
assay-setup: source organism: Vaccinia virus Copenhagen
assay-readout: pKd
The value called pKd is obtained by taking minus log10 of the concentration in mol/L.

Lab note: IIKSPYMFA gave pKd of 8.19

----------
tested-target: HLA-A*02:02
protocol-summary: IEDB peptide-MHC binding, purified MHC/competitive/radioactivity; filed as Kd, often an IC50 or EC50 that approximates it; bounds were set here for any values at or beyond the usual limits of such assays
assay-setup: source organism: Mammarenavirus guanaritoense
pKd: −log10 of the molar value.
assay-readout: pKd

Lab note: KNAGYLVGR gave pKd of ≤ 4.34

Ref: the Immune Epitope Database (IEDB)
